target: CDK7/cyclinH/MAT1 trimeric complex (Homo sapiens, UniProt P50613); assay: In vitro CDK7 assay, potency of irreversible covalent inhibitors (kinact/KI), coupled PK/LDH ADP readout at 340 nm; details: 20 nM enzyme
Sequence (P50613 whole entry): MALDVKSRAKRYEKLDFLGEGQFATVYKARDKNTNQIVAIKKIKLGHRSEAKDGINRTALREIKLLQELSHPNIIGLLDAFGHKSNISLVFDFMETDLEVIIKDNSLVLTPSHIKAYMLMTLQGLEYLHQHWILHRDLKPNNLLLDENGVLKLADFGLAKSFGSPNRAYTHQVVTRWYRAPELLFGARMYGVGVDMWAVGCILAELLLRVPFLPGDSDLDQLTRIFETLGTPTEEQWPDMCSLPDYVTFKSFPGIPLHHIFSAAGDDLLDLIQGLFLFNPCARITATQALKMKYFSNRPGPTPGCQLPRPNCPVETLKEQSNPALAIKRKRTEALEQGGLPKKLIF
Sequence (P51946 whole entry partner): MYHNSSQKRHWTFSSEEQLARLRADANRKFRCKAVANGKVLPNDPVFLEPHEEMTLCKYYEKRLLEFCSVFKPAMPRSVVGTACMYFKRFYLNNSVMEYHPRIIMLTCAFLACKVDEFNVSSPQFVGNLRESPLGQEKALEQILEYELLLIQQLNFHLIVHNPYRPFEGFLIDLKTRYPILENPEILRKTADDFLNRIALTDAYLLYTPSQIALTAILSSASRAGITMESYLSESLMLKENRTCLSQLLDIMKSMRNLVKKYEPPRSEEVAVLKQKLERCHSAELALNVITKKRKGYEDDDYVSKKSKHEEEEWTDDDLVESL
Sequence (P51948 whole entry partner): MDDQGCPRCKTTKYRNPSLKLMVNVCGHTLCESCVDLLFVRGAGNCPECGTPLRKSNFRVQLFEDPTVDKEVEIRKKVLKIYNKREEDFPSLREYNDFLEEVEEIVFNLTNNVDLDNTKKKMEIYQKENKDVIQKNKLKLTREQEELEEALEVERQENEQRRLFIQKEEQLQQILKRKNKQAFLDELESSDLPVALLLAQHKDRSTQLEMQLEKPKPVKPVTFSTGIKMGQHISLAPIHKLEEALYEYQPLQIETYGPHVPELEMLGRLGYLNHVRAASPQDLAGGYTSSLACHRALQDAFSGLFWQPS
What CDK7 (20 nM enz.) (kinact, s^−1) was measured for each of the following?
Give bare numbers, in s⁻¹.

In the examples that follow, each entry is paired with its recorded CDK7 (20 nM enz.) (kinact, s^−1).
[
  {
    "COMPOUND": "C=CC(=O)N1CC(N2CCC(c3ccc4c(c3)Nc3nccc(N5CCOCC5)c3CO4)CC2)C1 [Compound 121]",
    "UNITS_SYMBOL": "s⁻¹",
    "CDK7 (20 nM enz.) (kinact, s^−1)": "9.753e-05"
  },
  {
    "COMPOUND": "CC#CC(=O)N1CC(N2CC(c3cc4c(c(C)n3)O[C@H](C)c3c(N5CCOCC5)ccnc3N4)C2)C1 (single isomer, unassigned) [compound 444]",
    "UNITS_SYMBOL": "s⁻¹",
    "CDK7 (20 nM enz.) (kinact, s^−1)": "4.506e-05"
  },
  {
    "COMPOUND": "CC#CC(=O)N1CC(N2CCC(c3cc4c(c(C)n3)O[C@H](C)c3c(N5CCOCC5)ccnc3N4)CC2)C1 (single isomer, unassigned) [Compound 510]",
    "UNITS_SYMBOL": "s⁻¹",
    "CDK7 (20 nM enz.) (kinact, s^−1)": "3.092e-05"
  }
]

Hey, can you go through the list below and give me CDK7 (20 nM enz.) (kinact, s^−1) for every item?
1. C=CC(=O)N1CC[C@@H](N2CC(c3cc4c(c(C5CC5)n3)OCc3c(N5CCOCC5)ccnc3N4)C2)C1 (single isomer, unassigned) [Compound 427]
2. C=CC(=O)N1CC[C@@H](N2CCC(c3cc4c(c(C)n3)OCc3c(N5CCOCC5)ccnc3N4)CC2)C1 (single isomer, unassigned) [Compound 363]
3. C=CC(=O)N1CCC(N2CC(c3ccc4c(c3)Nc3nccc(C5CCOCC5)c3CO4)C2)CC1 [Compound 96]
4. C=CC(=O)N1CC(N2CC[C@H](c3ccc4c(c3)Nc3nccc(N5CCOCC5)c3CO4)[C@@H](F)C2)C1 [Compound 110]
5. C=CC(=O)N1CCC(N2CC(c3cc4c(c(C)n3)OCc3c(-c5cnn(C)c5)ccnc3N4)C2)CC1 [Compound 316]

Data returned:
1: 7.839e-05; 2: 5.097e-05; 3: 4.701e-05; 4: 5.833e-05; 5: 2.255e-05

----------
What Ki was measured for each of the following?
target: CDK7/cyclinH/MAT1 trimeric complex (Homo sapiens, UniProt P50613); test: In vitro CDK7 assay, potency of irreversible covalent inhibitors (kinact/KI), coupled PK/LDH ADP readout at 340 nm; settings: CDK7 (20 nM enz.) (KI, μM), 20 nM enzyme
Please report the result as a number followed by the unit.

[
  {
    "COMPOUND": "C=CC(=O)N1CC(N2CCCN(C)[C@@H](c3cc(C)c4c(c3)Nc3nccc(C5CCOCC5)c3CO4)C2)C1 (single isomer, unassigned)",
    "Ki": "0.675 µM"
  },
  {
    "COMPOUND": "C=CC(=O)N1CC[C@@H](N2CC(c3cc(C)c4c(c3)Nc3nccc(-c5cnn(C)c5)c3CO4)C2)C1 (single isomer, unassigned) [Compound 194]",
    "Ki": "0.0892 µM"
  },
  {
    "COMPOUND": "C=CC(=O)N1CC(N2CCC(c3cc4c(c(C)n3)OCc3c(-c5cnn(C)c5)ccnc3N4)CC2)C1 [Compound 164]",
    "Ki": "0.0786 µM"
  }
]

Data request: I'm curious: which Ki was measured for `C=CC(=O)N1CC(N2CCC(O)(c3cc(C)c4c(c3)Nc3nccc(N5CCOCC5)c3CO4)CC2)C1` tested on CDK7/cyclinH/MAT1 trimeric complex (Homo sapiens, UniProt P50613)?
Data returned: 0.0741 µM

----------
What kinact was measured for each of the following?
target: CDK7/cyclinH/MAT1 trimeric complex (Homo sapiens, UniProt P50613); assay: In vitro CDK7 assay, potency of irreversible covalent inhibitors (kinact/KI), coupled PK/LDH ADP readout at 340 nm; conditions: read-out: CDK7 (20 nM enz.) (kinact, s^−1), 20 nM enzyme
One number for each entry, in s⁻¹.

In the examples that follow, each entry is paired with its recorded kinact.
[
  {
    "COMPOUND": "CC#CC(=O)N1CC(N2CCC(c3cc4c(c(C#N)n3)O[C@@H](C)c3c(N5CCOCC5)ccnc3N4)CC2)C1 (single isomer, unassigned)",
    "RECORDED_RESULT": "2.91e-05"
  },
  {
    "COMPOUND": "C#Cc1cc2c(cc1C1CCN(C3CN(C(=O)C=C)C3)CC1)Nc1nccc(C3CCOCC3)c1C(C)O2 (stereo not drawn)",
    "RECORDED_RESULT": "3.63e-05"
  },
  {
    "COMPOUND": "C=CC(=O)N1CC(N2CCC[C@@H](c3ccc4c(c3)Nc3nccc(N5CCOCC5)c3CO4)C2)C1 (single isomer, unassigned)",
    "RECORDED_RESULT": "7.9e-05"
  },
  {
    "COMPOUND": "CC#CC(=O)N1CC(c2nc(C)c(-c3cc4c(c(C)n3)OCc3c(N5CCOCC5)ccnc3N4)c(C)n2)C1",
    "RECORDED_RESULT": "3.13e-05"
  },
  {
    "COMPOUND": "CC#CC(=O)N1CC[C@@H](N2CC(c3cc(C)c4c(c3)Nc3nccc(N5CCOCC5)c3[C@@H](C)O4)C2)C1 (single isomer, unassigned)",
    "RECORDED_RESULT": "2.54e-05"
  }
]

Data request: Fill blank: measured kinact of the compound `C=CC(=O)N1CC(N2CCC(c3cc(F)c4c(c3)Nc3nccc(N5CCS(=O)(=O)CC5)c3CO4)CC2)C1` is ____.
Data returned: 8.36e-05

----------
biological target: CDK7/cyclinH/MAT1 trimeric complex (Homo sapiens); experiment: In vitro CDK7 assay, potency of irreversible covalent inhibitors (kinact/KI), coupled PK/LDH ADP readout at 340 nm; conditions: CDK7 (20 nM enz.) (KI, μM), 20 nM enzyme
What log10 of Ki was measured for each of the following?
Record value = log10 of Ki given in µM.

[
  {
    "MOLECULE": "C=CC(=O)N1CC[C@H](N2CC(c3cc4c(c(C(F)(F)F)n3)O[C@H](C)c3c(N5CCOCC5)ccnc3N4)C2)C1 (single isomer, unassigned) [Compound 501]",
    "TARGET": "CDK7/cyclinH/MAT1 trimeric complex (Homo sapiens)",
    "log10 of Ki": 0.37
  },
  {
    "MOLECULE": "C=CC(=O)N1CCC(N2CC(c3cc4c(c(CCC)n3)OCc3c(N5CCOCC5)ccnc3N4)C2)CC1 [Compound 348]",
    "TARGET": "CDK7/cyclinH/MAT1 trimeric complex (Homo sapiens)",
    "log10 of Ki": -1.27
  },
  {
    "MOLECULE": "C=CC(=O)N1CC(N2CCC(c3ccc4c(c3)Nc3nccc(N5CCc6nn(C)cc6C5)c3CO4)CC2)C1 [Compound 132]",
    "TARGET": "CDK7/cyclinH/MAT1 trimeric complex (Homo sapiens)",
    "log10 of Ki": -0.51
  }
]

Hey, can you go through the list below and give me log10 of Ki for every item?
1. C=CC(=O)N1CC(N2CCC(c3ccc4c(c3)Nc3nccc(-c5cnn(C)c5)c3[C@H](C)O4)CC2)C1 (single isomer, unassigned) [Compound 232]
2. C=CC(=O)N1CC[C@H](N2CC(c3cc4c(c(C)n3)OCc3c(C5CCOCC5)ccnc3N4)C2)[C@@H](F)C1 (mixture of isomers) [Compound 242]
3. C=CC(=O)N1CC(N2CCC(c3cc4c(c(C)n3)O[C@H](C)c3c(C5CCOCC5)ccnc3N4)CC2)C1 (single isomer, unassigned) [Compound 246]

Data returned:
1: 1.00; 2: -0.89; 3: -1.02

----------
biological target: CDK7/cyclinH/MAT1 trimeric complex (Homo sapiens, UniProt P50613); assay: In vitro CDK7 assay, potency of irreversible covalent inhibitors (kinact/KI), coupled PK/LDH ADP readout at 340 nm; conditions: CDK7 (20 nM enz.) (KI, μM), 20 nM enzyme
What log10(Ki) was measured for each of the following?
Record value = log10 of Ki given in µM.

In the examples that follow, each entry is paired with its recorded log10(Ki).
[
  {
    "COMPOUND": "C=CC(=O)N1CC(N2CCC(c3cc4c(cn3)OCc3c(C5CCOCC5)ccnc3N4)CC2)C1 [Compound 130]",
    "RECORDED_RESULT": -0.96
  },
  {
    "COMPOUND": "C=C(C(=O)N1CC[C@H](N2CCC(c3cc4c(c(C)n3)OCc3c(-c5cnn(C)c5)ccnc3N4)CC2)C1)n1cccn1 (single isomer, unassigned) [Compound 372]",
    "RECORDED_RESULT": -1.21
  },
  {
    "COMPOUND": "C=CC(=O)N1CC(c2nc(C)c(-c3cc4c(c(C)n3)OCc3c(N5CCOCC5)ccnc3N4)c(C)n2)C1 [compound 277]",
    "RECORDED_RESULT": -0.81
  },
  {
    "COMPOUND": "C=CC(=O)N1CC[C@@H](N2CC(c3cc4c(c(C)n3)OCc3c(-c5cnn(C)c5)ccnc3N4)C2)C1 (single isomer, unassigned) [Compound 204]",
    "RECORDED_RESULT": -0.45
  }
]

Hey, can you go through the list below and give me log10(Ki) for every item?
1. CC#CC(=O)N1CC(N2CC[C@H](c3cc4c(c(C)n3)O[C@H](C)c3c(N5CCOCC5)ccnc3N4)N(C)CC2)C1 (single isomer, unassigned) [Compound 525]
2. C=CC(=O)N1CCC2(CC1)CC(c1cc(F)c3c(c1)Nc1nccc(N4CCOCC4)c1CO3)C2 [Compound 250]
3. C=CC(=O)N1CC(N2CCC(c3cc4c(c(C)n3)O[C@@H](C)c3c(C5CCOCC5)ccnc3N4)CC2)C1 (single isomer, unassigned) [Compound 415]
4. C=CC(=O)N1CC[C@@H](N2CC(c3cc4c(c(C5CC5)n3)OCc3c(C5CCOCC5)ccnc3N4)C2)C1 (single isomer, unassigned) [Compound 445]
5. CC#CC(=O)N1CC(N2CCC(c3cc(C#N)c4c(c3)Nc3nccc(N5CCOCC5)c3[C@H](C)O4)CC2)C1 (single isomer, unassigned) [Compound 442]
6. C=CC(=O)N1CC(N2CCC(c3cc4c(cc3C#N)OCc3c(N5CCOCC5)ccnc3N4)CC2)C1 [Compound 174]

Data returned:
1. -1.96
2. -0.25
3. 0.35
4. -1.07
5. -0.11
6. -0.84

Hey, can you go through the list below and give me log10(Ki) for every item?
1. C=CC(=O)N1CC[C@@H](N2CC(c3cc4c(c(C)n3)O[C@H](C)c3c(C5CCOCC5)ccnc3N4)C2)C1 (single isomer, unassigned) [Compound 413]
2. C=CC(=O)N1CC(N2CC[C@@H](c3cc(C)c4c(c3)Nc3nccc(C5CCOCC5)c3CO4)N(C)CC2)C1 (single isomer, unassigned) [Compound 256]

Data returned:
1. -1.43
2. -1.08

Data credit: patent US20240254138A1
